# Target Or Test System: T1, human Protein S (human, UniProt P07225 42-676)
# T1 sequence: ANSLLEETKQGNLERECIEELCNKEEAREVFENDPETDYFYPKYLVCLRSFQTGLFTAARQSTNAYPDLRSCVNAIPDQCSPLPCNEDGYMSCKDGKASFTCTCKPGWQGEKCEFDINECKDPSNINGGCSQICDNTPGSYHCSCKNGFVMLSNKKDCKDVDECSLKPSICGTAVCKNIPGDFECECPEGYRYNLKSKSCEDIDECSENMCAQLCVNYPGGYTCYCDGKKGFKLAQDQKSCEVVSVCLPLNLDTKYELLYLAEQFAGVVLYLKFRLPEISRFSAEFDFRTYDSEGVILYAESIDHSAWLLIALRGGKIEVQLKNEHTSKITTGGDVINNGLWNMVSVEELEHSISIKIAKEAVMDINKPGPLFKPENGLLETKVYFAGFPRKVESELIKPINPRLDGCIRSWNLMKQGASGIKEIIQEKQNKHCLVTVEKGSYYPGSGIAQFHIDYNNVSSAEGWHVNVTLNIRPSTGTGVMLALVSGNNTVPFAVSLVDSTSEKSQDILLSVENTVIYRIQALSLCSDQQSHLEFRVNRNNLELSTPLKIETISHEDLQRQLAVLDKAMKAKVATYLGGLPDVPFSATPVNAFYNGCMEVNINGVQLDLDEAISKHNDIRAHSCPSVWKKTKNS
# Assay Explanation: cell-based or functional assay
Reported Metric: IC50 TFPI (nM)
Give bare numbers, in nM.

Answered examples (2):
{"Binder": "Antibody 33 (antibody, V domains shown, Human variable region with rat Fc) VH: QVQLQQSGPGLVKPSQTLSLTCAISGDSVSNNNAAWNWIRQSPSRGLEWLGGTYYRSKWYNDYAVSVKSRIIINPVTSKNQFSLQLNSVTPEDTAVYYCARGSSWYRFFDYWGQGTLVTVSS VL: EIVLTQSPGTLSLSPGERATLSCRASQSVGSSYLAWYQQKPGQAPRLLISGASGRATGIPDRFSGSGSGTDFTLTISRLEPEDFTVYYCQQYGSSPYTFGQGTKLEIK", "U": "nM", "IC50 TFPI": 34}
{"Binder": "Antibody 24 (antibody, V domains shown, Human variable region with rat Fc) VH: QVQLQESGPGLVKPSETLSLTCGVSGGSISSTNWWSWVRQPPGKGLEWIGEIYQTGSTDYDPSLKSRVTISIDKSKNQFSLKLYSVTAADTAVYYCARRFGELDYWGQGTLVTVSS VL: EIVMTQSPATLSVSPGERATLSCRASQSVTSNLAWYQQKPGQAPRLLIYDASTRATGIPARFSGSGSGTEFTLTISSLQSEDFAIYYCQQYNNWPTFGQGTRLEIK", "U": "nM", "IC50 TFPI": 73.6}

Could you now consider this next binder?
Look up IC50 TFPI for this binder: Antibody 14 (antibody, V domains shown, Human variable region with rat Fc) VH: QVQLQESGPGLVKPSQTLSLTCTVSGGSITSDGYHWSWIRQYPGKGLDWIGYIYYTGNTYYNPSLKSRVTISVGTSQNQFSLKLISVTAADTAVYYCARRLSTGPYFDYWGQGTLVTVSS VL: QSALTQPASVSGSPGQSITISCTGTSSDVGGYEFVSWYQHHPGKAPKLMIYDVSSRPSGVSNRFSGSKSGNTASLTISGLQAEDEADYYCSSYTRSSTVVFGGGARLTVL 73.3
